Source listed as patent US20250340659A1.

Target: T1, recombinant canine OX40L ECD-TNCc-HIS protein (canine)
T1 construct: also called Trimeric OX40L probe (HIS tag); trimeric canine OX40L
T1 chain: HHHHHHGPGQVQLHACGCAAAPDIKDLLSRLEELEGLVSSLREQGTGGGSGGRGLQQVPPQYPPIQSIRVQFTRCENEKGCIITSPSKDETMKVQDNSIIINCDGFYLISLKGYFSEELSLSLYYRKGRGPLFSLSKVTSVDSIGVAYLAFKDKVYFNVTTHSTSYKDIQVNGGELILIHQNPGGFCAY
Assay: SPR Koff (kd1)
For each record, write down the corresponding koff.
Hi! Could you send only the number? It should be in s⁻¹, unit omitted.

Query :: I would be grateful if you could share the reported koff for PMX098 (antibody, V domains shown) VH: EVQLVESGGDLVKPGGSLRLSCVASGFTFNTYHMNWVRQAPGKGLHWVAFINSGGSGTSYADTVKGRFTISRDYAKNTLYLQMNSLRAEDTAVYYCASGSIWTHFDYWGQGTLVTVSS VL: SYVLTQLPSVSLTLRQTAHITCGGDIIGSKSVYWYQQKLGQAPVLIIYRDNNRPTGIPERFSGASSGNTATLTISGALAEDEADYYCQVWDSSTQAMFGGGTHLTVL .
Result :: 0.00147

Query :: I would be grateful if you could share the reported koff for PMX293 (antibody, V domains shown) VH: EVRLLESGGDLVKPAGSLRLSCAVSGFTFSTYDMSWVRQAPGKGLQWVAYITYDGRTTSYTDTVKGRFTVSRDNAKNMLYLKMNSLRSEDAAVYYCAKAHRGWFFDHWGQGTLVTVSS VL: SYVLTQLPSVSVTLRQTARITCGGDSIGSKNVYWYQQKLGQAPVLIIYDDTSRPSGIPERFSGANSGTTATLTISGALAEDEADYYCQVWDSSTGVFGGGTHLTVL .
Result :: 0.000387

Query :: I would be grateful if you could share the reported koff for PMX064 (antibody, V domains shown, also called PMX64) VH: EVQLVESGGDLVKPGGSLRLSCVASGFTFSSYHMSWVRQAPGKGLQWVAYITSGGITTSYADAVKGRFTISRDNAKNTLYLQMNSLRAEDTAVYYCASDLVLILGGADYWGQGTLVTVSS VL: SYELTQPPSVNVTLSETAHITCGGDSIGRKYVQWIQQNPGQAPVVIIYKDSNRPTGIPERFSGANSGNTATLTISGALAEDEADYYCQVGDSGTKAVFGGGTHLTVL .
Result :: 0.0352
